The origin of these recorded values is ChEMBL document CHEMBL5154747.

Provide the reported inhibition of growth at 10 µM of each item.
System: MOLT-4
method.notes: Anticancer activity against human MOLT-4 cells assessed as cell growth inhibition at 10 uM incubated for 48 hrs by SRB assay relative to control
Assay type: functional
run.conditions: read-out: GI

IN: Return reported inhibition of growth at 10 µM; argument: NS(=O)(=O)c1ccc(Nc2nc(N/N=C/c3ccc(C(F)(F)F)cc3)nc(Nc3ccccc3)n2)cc1
OUT: 90%

IN: Return reported inhibition of growth at 10 µM; argument: NS(=O)(=O)c1ccc(Nc2nc(N/N=C/c3ccc(F)cc3)nc(Nc3ccccc3)n2)cc1
OUT: 78%

IN: Return reported inhibition of growth at 10 µM; argument: NS(=O)(=O)c1ccc(Nc2nc(N/N=C/c3ccc(Cl)cc3)nc(Nc3ccccc3)n2)cc1
OUT: 98%

IN: Return reported inhibition of growth at 10 µM; argument: NS(=O)(=O)c1ccc(Nc2nc(N/N=C/c3c[nH]c4ccccc34)nc(Nc3ccccc3)n2)cc1
OUT: 80%

IN: Return reported inhibition of growth at 10 µM; argument: Cc1nn(-c2ccccc2)cc1/C=N/Nc1nc(Nc2ccccc2)nc(Nc2ccc(S(N)(=O)=O)cc2)n1
OUT: 93%

IN: Return reported inhibition of growth at 10 µM; argument: NS(=O)(=O)c1ccc(Nc2nc(N/N=C/c3ccccn3)nc(Nc3ccccc3)n2)cc1
OUT: 96%

IN: Return reported inhibition of growth at 10 µM; argument: NS(=O)(=O)c1ccc(Nc2nc(N/N=C/c3ccc([N+](=O)[O-])cc3)nc(Nc3ccccc3)n2)cc1
OUT: 88%

IN: Return reported inhibition of growth at 10 µM; argument: NS(=O)(=O)c1ccc(Nc2nc(N/N=C/c3ccccc3)nc(Nc3ccccc3)n2)cc1
OUT: 58%
